TARGET ENTITY: Toxin B (TcdB) glycohydrolase, Clostridioides difficile 630
ASSAY NAME: TcdB glycohydrolase inhibitors, dose response, biochemical, cherry-pick, plate reader (AID 720512)
CONDITIONS USED: recombinant TcdB glycohydrolase activity, at 19.5 µM (top of the series)
Active and inactive are the calls of the source. No rule for the calls is given here.
ASSAY METRIC: activity change, negative = inhibition

INPUT: For the compound COc1ccc(NC(c2ccccc2)c2ccncc2)cc1 (stereo not given) , give its reported activity change, negative = inhibition.
OUTPUT: inactive

INPUT: For the compound O=C(C[C@H]1CC[C@@H]2[C@H](COC[C@@H](O)CN2C(=O)Nc2ccc(Cl)c(Cl)c2)O1)NCc1ccncc1 , give its reported activity change, negative = inhibition.
OUTPUT: inactive

INPUT: For the compound OCC1CCCN(C(=S)Nc2ccc(Nc3ccccc3)cc2)C1 (stereo not given) , give its reported activity change, negative = inhibition.
OUTPUT: inactive

INPUT: For the compound CCc1ccccc1NC(=S)N(Cc1ccc(C(=O)O)cc1)Cc1ccc(OC)c(OC)c1 , give its reported activity change, negative = inhibition.
OUTPUT: inactive

Kindly consider the entry below.
INPUT: For the compound Cc1ccc(NNC(=O)c2ccno2)cc1C , give its reported activity change, negative = inhibition.
OUTPUT: inactive

* * *

TARGET ENTITY: Toxin B (TcdB) glycohydrolase, Clostridioides difficile 630
ASSAY NAME: TcdB glycohydrolase inhibitors, dose response, biochemical, cherry-pick, plate reader (AID 720512)
CONDITIONS USED: recombinant TcdB glycohydrolase activity
Calls of active or inactive are those of the source. How the calls were made is not given here.
// one of TRUE = active, FALSE = inactive, no free text

INPUT: For CCOc1cc(/C=N/n2cnnc2)ccc1O , what call appears in the results of this test?
OUTPUT: FALSE

INPUT: For COc1cc(/C=C/C(=O)OCC(=O)NC(=O)NC(C)C)ccc1O , what call appears in the results of this test?
OUTPUT: FALSE

INPUT: For O=C(CCn1c(=O)oc2cc(Cl)ccc21)Nc1ccc(O)cc1 , what call appears in the results of this test?
OUTPUT: FALSE

INPUT: For CN(C)CCNc1cccc2sc3ccc(O)cc3c(=O)c12 , what call appears in the results of this test?
OUTPUT: TRUE

INPUT: For CN1/C(=C/C=C/c2n(C)c3cc([N+](=O)[O-])c([N+](=O)[O-])cc3[n+]2C)C(C)(C)c2ccccc21 , what call appears in the results of this test?
OUTPUT: FALSE

INPUT: For CCC(=O)N1CC[C@@H]2[C@H]1c1cc(-c3ccc(OC)cc3)ccc1N(C)[C@H]2CO , what call appears in the results of this test?
OUTPUT: FALSE

INPUT: For COc1ccc(C(=O)/C=C/c2ccc(O)cc2)c2c1CC(O)C(C)(C)O2 (stereo not drawn) , what call appears in the results of this test?
OUTPUT: FALSE

INPUT: For O=C1Nc2ccc(Br)cc2C1Cc1ccccc1F (stereo not drawn) , what call appears in the results of this test?
OUTPUT: FALSE

INPUT: For Cc1cc(C)c2nc(C)cc(N/N=C/c3ccc(O)cc3)c2c1 , what call appears in the results of this test?
OUTPUT: FALSE

INPUT: For Cc1ccc2nc(-c3ccc4c(c3)OCCO4)cn2c1 , what call appears in the results of this test?
OUTPUT: FALSE

INPUT: For ON=C1c2ccccc2-c2ccc(O)cc21 , what call appears in the results of this test?
OUTPUT: TRUE

INPUT: For COc1cc2c(cc1O)CC[n+]1cc3c(OC)c(OC)ccc3cc1-2 , what call appears in the results of this test?
OUTPUT: FALSE

INPUT: For O=c1[nH]c(/C=C\c2ccc(O)c(Cl)c2)nc(O)c1[N+](=O)[O-] , what call appears in the results of this test?
OUTPUT: FALSE

INPUT: For Oc1ccc(-c2cn3ccccc3n2)cc1 , what call appears in the results of this test?
OUTPUT: TRUE

INPUT: For CCCNC(=O)N1CC[C@@H]2[C@@H](CO)N(C)c3ccc(-c4ccccc4)cc3[C@@H]21 , what call appears in the results of this test?
OUTPUT: FALSE

INPUT: For Cc1ccc(N/N=C/c2c(O)n(-c3ccccc3)c(=O)[nH]c2=O)cc1 , what call appears in the results of this test?
OUTPUT: TRUE

INPUT: For S=C(NCCN1CCOCC1)Nc1ccc(Nc2ccccc2)cc1 , what call appears in the results of this test?
OUTPUT: FALSE

INPUT: For CCCNC(=O)C[C@H]1CC[C@@H]2[C@H](COc3ccc(NC(=O)c4ccc(Cl)cc4)cc3C(=O)N2C)O1 , what call appears in the results of this test?
OUTPUT: FALSE

INPUT: For Cc1ccc(C(=O)Nc2scc(-c3ccccc3)c2C(=O)O)cc1 , what call appears in the results of this test?
OUTPUT: FALSE

INPUT: For c1ccc(OCCSc2nnc3sc4ccccc4n23)cc1 , what call appears in the results of this test?
OUTPUT: FALSE

INPUT: For COc1ccc(/C=C(/C#N)C(=O)Nc2ccc(O)cc2)cc1C(=O)O , what call appears in the results of this test?
OUTPUT: FALSE

INPUT: For Cn1c(=O)c2[nH]c(=S)n(Cc3ccccc3)c2n(C)c1=O , what call appears in the results of this test?
OUTPUT: TRUE

INPUT: For CCn1c(=S)[nH]c2c(=O)n(C)c(=O)n(C)c21 , what call appears in the results of this test?
OUTPUT: TRUE

Measured values drawn from PubChem BioAssay AID720512 for this set.
